Biological target: nucleocapsid protein of the SARS-CoV-2 virus (N protein) (SARS-CoV-2), P0DTC9
Assay: SPR (BIACORE); Peptide SEQ ID NO: 1
Measure: Kd (nM)

>>> endpoint_result("RVTQMNLNDRLASLYDKV (modifications not checked) [peptide identified in the Sequence Listing as SEQ ID NO: 1]")
3.58
